The measured values listed here are drawn from paper PMC9971899.

system: TM6-N4; experiment: Isothermal titration calorimetry of alginate and oligoalginate binding to TM6-N4; parameters: species or system Defluviitalea phaphyphila; conditions: ITC, 25 °C, pH 7.0; calculated from ΔG = ΔH-TΔS
MEASUREMENT_TYPE: TΔS

| COMPOUND | ASSAY_SYSTEM | VALUE |
| --- | --- | --- |
| O=C(O)[C@@H]1O[C@@H](O[C@H]2[C@H](O)[C@H](O)[C@H](O[C@H]3[C@H](O)[C@H](O)C(O)O[C@H]3C(=O)O)O[C@H]2C(=O)O)[C@@H](O)[C@@H](O)[C@@H]1O (some centres unmarked) [G3] | TM6-N4 | -31.8 kJ/mol |
| O=C(O)[C@@H]1O[C@@H](O[C@H]2[C@H](O)[C@H](O)[C@H](O[C@H]3[C@H](O)[C@H](O)[C@H](O[C@H]4[C@H](O)[C@H](O)[C@H](O[C@H]5[C@H](O)[C@H](O)[C@H](O[C@H]6[C@H](O)[C@H](O)C(O)O[C@H]6C(=O)O)O[C@H]5C(=O)O)O[C@H]4C(=O)O)O[C@H]3C(=O)O)O[C@H]2C(=O)O)[C@@H](O)[C@@H](O)[C@@H]1O (some centres unmarked) [G6] | TM6-N4 | 7.95 kJ/mol |
